Tested on: S. aureus ATCC 6538/P
Assay type: cell-based, Staphylococcus aureus
Conditions: reference strain, broth microdilution, 0.5 × 10^5 CFU/mL, 18 h, 37 °C, at least triplicate
Where no end group is shown, it is not given here.
What MIC was measured for each of the following?

So what MIC did KWKLFKKIGAVLKVL-NH2 [CAMEL TFA^−] get with S. aureus ATCC 6538/P?
4 µg/mL

Now try KWKLFKKIGAVLKVL-NH2 [CAMEL Cl^−] .
1 µg/mL

Now try GLFDVIKKVASVIGGL-NH2 [Citropin 1.1 TFA^−] .
16 µg/mL

Now try GLFDVIKKVASVIGGL-NH2 [Citropin 1.1 Cl^−] .
8 µg/mL

Now try KWKLFKKIGAVLKVL-NH2 [CAMEL AcO^−] .
1 µg/mL

Now try FLPLIGRVLSGIL-NH2 [Temporin A Cl^−] .
8 µg/mL

Now try GLFDVIKKVASVIGGL-NH2 [Citropin 1.1 AcO^−] .
8 µg/mL

###

What MIC was measured for each of the following?
Tested on: S. aureus ATCC 6538
Assay type: cell-based, Staphylococcus aureus
Conditions: ATCC 6538, reference strain; broth microdilution, 0.5 × 10^5 CFU/mL, 18 h, 37 °C, at least triplicate
Where no end group is shown, it is not given here.
State the answer as a number, implicitly in µg/mL.

So what MIC did GLFDVIKKVASVIGGL-NH2 [Citropin 1.1 Cl^−] get with S. aureus ATCC 6538?
4

Now try GLFDVIKKVASVIGGL-NH2 [Citropin 1.1 TFA^−] .
16

Now try GLFDVIKKVASVIGGL-NH2 [Citropin 1.1 AcO^−] .
4

Now try KWKLFKKIGAVLKVL-NH2 [CAMEL TFA^−] .
2

Now try FLPLIGRVLSGIL-NH2 [Temporin A Cl^−] .
4

###

Tested on: S. aureus (29): reference (5) and clinical (24) strains
Details: mean over 29 S. aureus strains, as repeated in Table 6
Where no end group is shown, it is not given here.
readout: Mean MIC values (µg/mL)
State the answer as a number, implicitly in µg/mL.

So what Mean MIC values did GLFDVIKKVASVIGGL-NH2 [Citropin 1.1 Cl^−] get with S. aureus (29): reference (5) and clinical (24) strains?
10.0

Now try GLFDVIKKVASVIGGL-NH2 [Citropin 1.1 TFA^−] .
13.0

Now try GLFDVIKKVASVIGGL-NH2 [Citropin 1.1 AcO^−] .
10.0

Now try FLPLIGRVLSGIL-NH2 [Temporin A Cl^−] .
5.7

###

Test system: S. aureus (29): reference (5) and clinical (24) strains
Settings: mean over 29 S. aureus strains, as repeated in Table 6
Where no end group is shown, it is not given here.
What Mean MIC values was measured for each of the following?

Mean MIC values for KWKLFKKIGAVLKVL-NH2 [CAMEL Cl^−] ?
≤ 2.0 µg/mL

Now try KWKLFKKIGAVLKVL-NH2 [CAMEL TFA^−] .
≤ 3.5 µg/mL

Now try KWKLFKKIGAVLKVL-NH2 [CAMEL AcO^−] .
≤ 2.8 µg/mL
